Target: recombinant human GCase (rhGCase; Cerezyme®) (Homo sapiens, UniProt P04062, R534H)
Construct: purchased Genzyme Corp
Sequence (P04062 40-536 R534H): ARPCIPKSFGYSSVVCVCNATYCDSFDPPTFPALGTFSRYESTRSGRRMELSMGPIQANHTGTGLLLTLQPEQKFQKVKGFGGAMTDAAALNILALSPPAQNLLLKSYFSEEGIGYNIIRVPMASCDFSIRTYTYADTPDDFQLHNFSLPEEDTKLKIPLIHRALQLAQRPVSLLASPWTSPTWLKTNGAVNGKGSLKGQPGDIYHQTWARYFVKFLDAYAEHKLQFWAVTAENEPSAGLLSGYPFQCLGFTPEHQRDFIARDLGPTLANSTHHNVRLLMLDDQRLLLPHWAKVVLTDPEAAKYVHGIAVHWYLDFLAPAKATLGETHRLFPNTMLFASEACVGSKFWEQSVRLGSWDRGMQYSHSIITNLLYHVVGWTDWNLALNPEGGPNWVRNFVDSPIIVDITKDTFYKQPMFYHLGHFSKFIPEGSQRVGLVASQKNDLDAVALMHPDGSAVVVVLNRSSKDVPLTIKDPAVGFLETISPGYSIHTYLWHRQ
Test: In vitro enzyme inhibition assay (4-MU-β-D-Glc hydrolysis) for IC50 and Ki
Assay type: biochemical
Settings: pH 7.0 (endoplasmic reticulum pH); Cheng-Prusoff from IC50; read-out: Ki (μM) pH 7.0
Where a name gives a salt, the structure may show the parent alone.
# Lookup of reported Ki keyed by entry
State the answer as a number, implicitly in µM.

Below: 2 compounds and their reported Ki.
C[C@@H](O)[C@H]1CNC[C@@H](O)[C@@H]1O [Compound 9]; 0.01
C[C@H](F)[C@H]1CNC[C@@H](O)[C@@H]1O [Compound 13, Hydrochloride]; 0.009

Could you now consider this next compound?
GET /value?item= C[C@@H](F)[C@H]1CNC[C@@H](O)[C@@H]1O [Compound 14, Hydrochloride] &field=Ki returns 0.004

###

Molecular target: GCase (Homo sapiens)
Assay: GCase activity enhancement (EC50, Emax) of Table 2B
Where a name gives a salt, the structure may show the parent alone.
measure name: EC50
Your answer should be a number followed by the unit of measure.

C[C@@H](O)[C@H]1CNC[C@@H](O)[C@@H]1O [Compound 9]; 490 nM
C[C@@H](F)[C@H]1CNC[C@@H](O)[C@@H]1O [Compound 14, Hydrochloride]; 26 nM

Could you now consider this next compound?
Simply: C[C@H](F)[C@H]1CNC[C@@H](O)[C@@H]1O [Compound 13, Hydrochloride] , GCase (Homo sapiens), EC50 = 44 nM

###

Assay: Rat pharmacokinetics
Type: in vivo, rats
Conditions: male, Sprague-Dawley, plasma, iv, 3 mg/kg, IV 3 mg/kg free base
measure name: Vd (L/kg)
State the answer as a number, implicitly in L/kg.

GET /value?item= CC(F)[C@H]1CNC[C@@H](O)[C@@H]1O (single isomer, unassigned) &field=Vd returns 9.77

###

Biological target: lysosomal GCase (Homo sapiens)
Construct: fibroblasts established from a normal subject; endogenous in cells; host or cells: fibroblasts established from a normal subject
Experiment: In situ lysosomal GCase inhibition and washout in fibroblasts from a normal subject (PFBFDβGlu substrate)
Assay type: cell-based
Conditions: after 16-24 hours at IC90; single exponential fit of activity recovery over 8 hours
Structures can show the parent of a compound that is named as a salt.
# if value of in situ washout reaches 4 h, tag satisfied; if it stays below, tag not satisfied

CC(O)C1CNCC(O)C1O (single isomer, unassigned); satisfied

Prompt: I'd appreciate it if you could say whether C[C@@H](O)[C@H]1CNC[C@@H](O)[C@@H]1O has in situ washout at least equal to 4 h.
Completion: satisfied

Prompt: I'd appreciate it if you could say whether C[C@H](F)[C@H]1CNC[C@@H](O)[C@@H]1O [Compound 13, Hydrochloride] has in situ washout at least equal to 4 h.
Completion: not satisfied

Prompt: I'd appreciate it if you could say whether C[C@@H](F)[C@H]1CNC[C@@H](O)[C@@H]1O [Compound 14, Hydrochloride] has in situ washout at least equal to 4 h.
Completion: not satisfied

Prompt: I'd appreciate it if you could say whether O[C@@H]1[C@@H](Cc2ccccc2)CNC[C@H]1O has in situ washout at least equal to 4 h.
Completion: not satisfied

Prompt: I'd appreciate it if you could say whether O[C@H]1[C@H](O)CNC[C@@H]1C(F)F [Compound 6, Hydrochloride] has in situ washout at least equal to 4 h.
Completion: not satisfied

###

Assay: Rat pharmacokinetics
Format: in vivo, rats
Details: male, Sprague-Dawley, plasma, po, 10 mg/kg, PO 10 mg/kg free base, read-out: t1/2 (converted)
measure name: half-life (h)
State the answer as a number, implicitly in h.

GET /value?item= CC(F)[C@H]1CNC[C@@H](O)[C@@H]1O (single isomer, unassigned) &field=half-life returns 2.8

###

Assay: GCase enhancement in brain and spleen after oral dosing over 2 weeks
Format: in vivo, mice
Conditions: male, C57BL/6, mouse, brain homogenate as diluted in the GCase assay, po, 100 mg/kg, brain; 100 mg/kg FBE p.o.; read-out: Compound concentration in GCase assay
Structures can show the parent of a compound that is named as a salt.
measure name: concentration at 24 h
Your answer should be a number followed by the unit of measure.

CC[C@@H](F)[C@H]1CNC[C@@H](O)[C@@H]1O.Cl [hydrochloride]; 0.1 nM

Could you now consider this next compound?
GET /value?item= O[C@H]1[C@H](O)CNC[C@@H]1C(F)F [Compound 6, Hydrochloride] &field=concentration at 24 h returns 1 nM

###

# Lookup of reported Ki keyed by entry
Biological target: recombinant human GCase (rhGCase; Cerezyme®) (Homo sapiens, UniProt P04062, R534H)
Construct: purchased Genzyme Corp
Assay: In vitro enzyme inhibition assay (4-MU-β-D-Glc hydrolysis) for IC50 and Ki
Format: biochemical
Conditions: pH 5.2 (lysosomal pH); Cheng-Prusoff from IC50; read-out: Ki (μM) pH 5.2
Counter-ions that a name gives are not always drawn.
Your answer should be a number followed by the unit of measure.

GET /value?item= C[C@H](F)[C@H]1CNC[C@@H](O)[C@@H]1O [Compound 13, Hydrochloride] &field=Ki returns 0.0498 µM

GET /value?item= C[C@@H](O)[C@H]1CNC[C@@H](O)[C@@H]1O &field=Ki returns 0.044 µM

GET /value?item= C[C@@H](F)[C@H]1CNC[C@@H](O)[C@@H]1O [Compound 14, Hydrochloride] &field=Ki returns 0.016 µM

###

Experiment: Rat pharmacokinetics
Format: in vivo, rats
Conditions: male, Sprague-Dawley, plasma, po, 30 mg/kg, PO 30 mg/kg free base, read-out: t1/2 (converted)
Description: Pharmacokinetic (PK) data was obtained in rats to assess the bioavailability of test compound. In particular, the following PK parameters were calculated: bioavailability as measured by area under the Concentration/Time curve (AUC), fraction of dose available (% F; further defined below), clearance (CL), volume of distribution (Vd), and half-life (t½). […] Three rats were used per dosing group. […] Plasma samples were analyzed for compound levels by LC-MS/MS at PPD. […]
measure name: half-life
Your answer should be a number followed by the unit of measure.

GET /value?item= CC(F)[C@H]1CNC[C@@H](O)[C@@H]1O (single isomer, unassigned) &field=half-life returns 162 min

###

Assay: Rat pharmacokinetics
Format: in vivo, rats
Conditions: male, Sprague-Dawley, plasma, po, 100 mg/kg, PO 100 mg/kg free base, read-out: Cmax
measure name: Cmax

GET /value?item= CC(F)[C@H]1CNC[C@@H](O)[C@@H]1O (single isomer, unassigned) &field=Cmax returns 19400 ng/mL

###

Experiment: Rat pharmacokinetics
Type: in vivo, rats
Conditions: male, Sprague-Dawley, plasma, iv, 3 mg/kg, IV 3 mg/kg free base, read-out: t1/2 (converted)
Experimental: Pharmacokinetic (PK) data was obtained in rats to assess the bioavailability of test compound. In particular, the following PK parameters were calculated: bioavailability as measured by area under the Concentration/Time curve (AUC), fraction of dose available (% F; further defined below), clearance (CL), volume of distribution (Vd), and half-life (t½). […] Three rats were used per dosing group. […] Plasma samples were analyzed for compound levels by LC-MS/MS at PPD. […]
measure name: half-life (h)
State the answer as a number, implicitly in h.

GET /value?item= CC(F)[C@H]1CNC[C@@H](O)[C@@H]1O (single isomer, unassigned) &field=half-life returns 2.6

###

# Lookup of reported IC50 keyed by entry
Molecular target: lysosomal GCase (Homo sapiens, UniProt P04062)
Construct: fibroblasts established from a normal subject; endogenous in cells
Sequence (P04062 40-536): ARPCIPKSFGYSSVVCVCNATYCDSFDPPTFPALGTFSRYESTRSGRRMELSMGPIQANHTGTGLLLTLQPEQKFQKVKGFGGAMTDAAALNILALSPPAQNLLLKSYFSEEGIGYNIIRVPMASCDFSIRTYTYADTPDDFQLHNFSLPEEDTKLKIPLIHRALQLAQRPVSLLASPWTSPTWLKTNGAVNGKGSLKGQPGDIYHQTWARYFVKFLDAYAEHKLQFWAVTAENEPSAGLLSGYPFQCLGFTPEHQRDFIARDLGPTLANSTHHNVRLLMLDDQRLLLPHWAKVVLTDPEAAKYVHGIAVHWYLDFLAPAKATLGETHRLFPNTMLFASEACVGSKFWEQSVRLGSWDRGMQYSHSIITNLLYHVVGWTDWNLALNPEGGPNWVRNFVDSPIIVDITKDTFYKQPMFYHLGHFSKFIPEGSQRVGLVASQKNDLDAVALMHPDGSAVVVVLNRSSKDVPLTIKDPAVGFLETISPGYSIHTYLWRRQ
Assay: In situ lysosomal GCase inhibition and washout in fibroblasts from a normal subject (PFBFDβGlu substrate)
Settings: fibroblasts, compound 16-24 hours, substrate 1 hour
Counter-ions that a name gives are not always drawn.
State the answer as a number, implicitly in µM.

Below: 2 molecules and their reported IC50.
C[C@@H](F)[C@H]1CNC[C@@H](O)[C@@H]1O [Compound 14, Hydrochloride]; 0.061
C[C@H](F)[C@H]1CNC[C@@H](O)[C@@H]1O [Compound 13, Hydrochloride]; 0.65

Could you now consider this next molecule?
GET /value?item= C[C@@H](O)[C@H]1CNC[C@@H](O)[C@@H]1O [Compound 9] &field=IC50 returns 0.518

###

Test: Rat pharmacokinetics
Type: in vivo, rats
Conditions: male, Sprague-Dawley, plasma, po, approximately
measure name: bioavailability

GET /value?item= CC(F)[C@H]1CNC[C@@H](O)[C@@H]1O (single isomer, unassigned) &field=bioavailability returns 50 to 100%
